- system.name: His-JNK3 (ref 14-501, Upstate) (UniProt P53779 1-422)
- Sequence (P53779 other isoform, or with tags, fused parts or gaps): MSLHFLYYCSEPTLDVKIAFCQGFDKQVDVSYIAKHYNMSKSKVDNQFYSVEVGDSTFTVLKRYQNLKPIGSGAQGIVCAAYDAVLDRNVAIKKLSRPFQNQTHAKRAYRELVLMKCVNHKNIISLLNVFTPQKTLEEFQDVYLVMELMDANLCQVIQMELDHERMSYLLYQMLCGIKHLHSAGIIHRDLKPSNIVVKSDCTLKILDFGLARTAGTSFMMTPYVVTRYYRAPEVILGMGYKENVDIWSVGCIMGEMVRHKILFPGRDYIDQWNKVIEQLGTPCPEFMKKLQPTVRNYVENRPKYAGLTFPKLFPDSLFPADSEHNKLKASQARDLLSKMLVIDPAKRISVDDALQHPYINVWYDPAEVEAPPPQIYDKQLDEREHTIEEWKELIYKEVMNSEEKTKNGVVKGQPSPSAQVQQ
- measurement.notes: kinase inhibition
Square brackets hold non-standard residues; d marks the D form. Ends that are not written are not given here.
Entries get a class label from measured IC50. See ranges: low-valued (below 40 nM), mid-valued (40 nM to below 60 nM), high-valued (60 nM or more)

The following binders have reported results that may help.
RKKRRQRRRRPKRPATLNLF [SEQ ID NO: 172] : high-valued
[dR]KKR[dR]QR[dR]RPTTL[dR]L[dW] [SEQ ID NO: 179] : mid-valued
[dR]KKR[dR]QRR[dR]RPTTL[dR]L[dW] [SEQ ID NO: 178] : low-valued
[dR]KKR[dR]QRR[dR]RP[dK]RP[dK]TLNL[dF] [SEQ ID NO: 187] : low-valued
[dR]KKR[dR]QRR[dR]GKRKALKL[dF] [SEQ ID NO: 188] : low-valued
[dR]KKR[dR]QRR[dR]RP[dK]RP[dS]TLNL[dF] [SEQ ID NO: 185] : low-valued
RKKRRQRRR [SEQ ID NO: 46] : high-valued
[dR]KKR[dR]QRR[dR]GKRKAL[dR]L[dF] [SEQ ID NO: 189] : high-valued
[dR]KKR[dR]QRR[dR]RPTDL[dR]L[dW] [SEQ ID NO: 180] : mid-valued

input: Which band does [dR]KKR[dR]QRR[dR]RP[dK]RPTTLNL[dW] [SEQ ID NO: 176] fall in?
output: low-valued
